- studyTarget: recombinant 15-PGDH (Homo sapiens, UniProt P15428)
- Sequence (P15428 whole entry): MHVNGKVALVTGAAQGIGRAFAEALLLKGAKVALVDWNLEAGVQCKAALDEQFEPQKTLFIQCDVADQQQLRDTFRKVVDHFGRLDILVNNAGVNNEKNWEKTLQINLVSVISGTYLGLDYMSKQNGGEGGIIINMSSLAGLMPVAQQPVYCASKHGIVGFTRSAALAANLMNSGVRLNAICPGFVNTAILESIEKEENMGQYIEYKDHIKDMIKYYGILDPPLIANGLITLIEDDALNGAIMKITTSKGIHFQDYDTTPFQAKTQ
- testDescription: IC50 for inhibiting enzymatic activity of recombinant 15-PGDH in an in vitro assay
- Format: biochemical
- experimentalSetup: read-out: Enzyme Inhibitor IC50 (nM) at 5 nM 15-PGDH; recombinant human 15-PGDH at 5 nM, in vitro
Catalogue of IC50 values
Provide the reading as a plain figure in nM.

>  <molecule>
CCCC[S@@+]([O-])c1sc2nc(-c3nccs3)cc(-c3cncn3C)c2c1N (single isomer, unassigned) [(+)-SW 217985]

>  <unitName>
nM

>  <measuredValue>
0.9

$$$$

Determine its reported IC50: CC(C)[S+]([O-])c1sc2nc(-c3nccs3)cc(-c3ccccc3)c2c1N (centres unmarked) [SW 208780]
5.55

Determine its reported IC50: Cc1cc(-c2nccs2)nc2sc([S+]([O-])C(C)C)c(N)c12 (centres unmarked) [SW 208664]
7.62

Determine its reported IC50: CC(C)[S+]([O-])c1sc2nc(-c3ncco3)cc(-c3ccccc3)c2c1N (centres unmarked) [SW 208660]
2.86

Determine its reported IC50: CCCC[S@+]([O-])c1sc2nc(-c3nccs3)cc(-c3cncn3C)c2c1N (single isomer, unassigned) [(−)-SW 217986]
765

Numbers sourced from patent US20180118756A1.
